Experiment: Selectivity index, ratio of IC50 for rat L6 cells assessed as reduction in cell viability measured after 72 hrs by Alamar blue based inverted microscopy analysis to IC50 for bloodstream Trypanosoma brucei rhodesiense STIB900 assessed as parasite growth inhibition measured after 70 hrs by Alamar blue assay
Format: toxicity
Conditions: read-out: Ratio IC50
READOUT KIND: selectivity ratio at 72 h
Enter the number alone.

Request: selectivity ratio at 72 h lookup needed for `COc1ccc2c(c1OC)CO[C@@H]2[C@H]1c2c(cc3c(c2OC)OCO3)CCN1[C@@H](CN=C=S)c1ccc(F)cc1` , thanks.
Result: 8

Request: selectivity ratio at 72 h lookup needed for COc1ccc2c(c1OC)CO[C@@H]2[C@H]1c2c(cc3c(c2OC)OCO3)CCN1C(CN)c1ccccc1 (stereo partly drawn) , thanks.
Result: 8.8

Request: selectivity ratio at 72 h lookup needed for `C[C@@H](CCCN=C=S)[C@H]1CC[C@H]2[C@@H]3[C@H](O)C[C@@H]4C[C@H](O)CC[C@]4(C)[C@H]3C[C@H](O)[C@]12C` , thanks.
Result: 2.9
